METHOD: in vitro
CONDITION_DESCRIPTION: human
READOUT_TYPE: inhibition at 72 h, 25 µg/mL (%)
Output spec: scalar in %, unitless text.

(Q) // inhibition at 72 h, 25 µg/mL lookup, key: CC[C@@]1(O)C(=O)OCc2c1cc1n(c2=O)Cc2cc3ccccc3nc2-1 [Camptothecin, reference compound]
(A) 7.35

----------
TARGET_OR_SYSTEM: UniProt:P53341
Sequence (P53341 whole entry): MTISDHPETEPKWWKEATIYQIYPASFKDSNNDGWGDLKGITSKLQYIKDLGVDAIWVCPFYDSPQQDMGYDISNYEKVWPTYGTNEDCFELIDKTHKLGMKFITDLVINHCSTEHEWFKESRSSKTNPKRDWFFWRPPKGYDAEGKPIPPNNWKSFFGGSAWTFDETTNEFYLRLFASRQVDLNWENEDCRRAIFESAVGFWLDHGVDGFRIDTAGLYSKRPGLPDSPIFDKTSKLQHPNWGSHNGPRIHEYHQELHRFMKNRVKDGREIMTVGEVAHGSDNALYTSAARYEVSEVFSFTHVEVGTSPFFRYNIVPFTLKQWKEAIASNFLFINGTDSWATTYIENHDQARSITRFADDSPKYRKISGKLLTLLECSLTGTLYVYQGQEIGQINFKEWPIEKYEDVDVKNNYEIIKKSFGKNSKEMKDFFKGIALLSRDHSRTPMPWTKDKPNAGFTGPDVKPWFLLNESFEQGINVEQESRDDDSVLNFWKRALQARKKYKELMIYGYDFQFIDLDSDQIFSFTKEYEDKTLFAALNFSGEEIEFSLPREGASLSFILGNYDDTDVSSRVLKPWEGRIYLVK
METHOD: Anti-alpha glucosidase activity and mechanism of action (Michaelis–Menten, Lineweaver–Burk plots)
Type: biochemical
CONDITION_DESCRIPTION: 400 μg/mL; isolated compounds panel; read-out: Alpha Glucosidase Inhibition at 400 μg/mL
READOUT_TYPE: inhibition at 400 µg/mL (%)
Output spec: scalar in %, unitless text.

INSERT INTO measurements (compound, target_or_system, unit_spec, measured_number) VALUES
  ('OCC(O)COCC(O)CO (stereo not shown) [Diglycerol]', 'UniProt:P53341', '%', 6.23),
  ('Cc1c(O)c(C(=O)C(O)Cc2ccccc2)c2oc(=O)cc(-c3ccccc3)c2c1O (stereo not shown) [Interruptin C]', 'UniProt:P53341', '%', 58.2),
  ('Cc1c(O)c(C(=O)CCc2ccccc2)c2oc(=O)cc(-c3ccccc3)c2c1O [Interruptin A]', 'UniProt:P53341', '%', 30.3);

Query compound follows.
(Q) // inhibition at 400 µg/mL lookup, key: C=C1CC23COC(=O)C2=CCC[C@@H]3[C@@H]2C[C@H](c3ccoc3)OC(=O)[C@H]12 (stereo partly shown) [The new diterpene (Lepionurodiolide)]
(A) 58.5
